Origin of measurements: PubChem BioAssay AID602340

Kindly state rescue of ATP level for each of the entries shown.
- measurement description: protection of differentiated C2C12 cells from simvastatin – single point, plate reader, primary screen (AID 602340);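 also: myotubes were challenged with 10 µM simvastatin during compound exposure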
- cond: C2C12 myotubes + simvastatin, ATP luminescence, 48 h; at 7.49 µM; stronger effect = higher value; scaled: DMSO 0, geranylgeraniol control 100
In all, about 330,000 compounds went through this assay and about 2,600 (0.79%) were called active. The sample holds actives, similar compounds and a random draw of the others, so the mix is not that of the screen.

Return reported rescue of ATP level. Input molecule: `CCOc1ccc(NC(=O)c2ccc(NC(=O)COC(=O)c3ccc(NC(=O)CC#N)cc3)cc2)cc1`
-8.99% (inactive)

Return reported rescue of ATP level. Input molecule: `COc1ccc(S(=O)(=O)Nc2ccc3c(c2)C(=O)N([C@@H](C)CO)C[C@H](C)[C@H](CN(C)Cc2ccc4c(c2)OCO4)OCCCC[C@H](C)O3)cc1`
-65.3% (inactive)

Return reported rescue of ATP level. Input molecule: `O=C(NCc1ccc(Cl)c(Cl)c1)c1cccnc1`
106% (active)

Return reported rescue of ATP level. Input molecule: `O=C(Nc1nnc(Cc2ccc(Cl)cc2)s1)c1cccnc1`
0.36% (inactive)

Return reported rescue of ATP level. Input molecule: `Cc1ccc(NC(=O)C(=O)NCc2ccco2)c(C)c1`
9.27% (inactive)

Return reported rescue of ATP level. Input molecule: `C[C@@H]1CN([C@@H](C)CO)C(=O)c2cc(C#CC3CC3)cnc2O[C@@H]1CN(C)C(=O)Cc1ccccn1`
13.5% (inactive)

Return reported rescue of ATP level. Input molecule: `N#Cc1ccc(Oc2ccc(C(F)(F)F)cc2NC(=O)c2ccc(F)cc2)cc1`
-5.87% (inactive)

Return reported rescue of ATP level. Input molecule: `COCC(=O)Nc1ccc2c(c1)OC[C@H](C)N(C(=O)Cc1ccccn1)C[C@H](C)[C@@H](OC)CN(C)C2=O`
9.72% (inactive)

Return reported rescue of ATP level. Input molecule: `CC(C)(C)c1cc(C(=O)NCc2cccnc2)ccn1`
-8.85% (inactive)
